Each entry below carries its reported melting point.

> print(dat)
                                   compound  endpoint.result
1  CN1CN=C2C=C(Nc3ccc(I)cc3F)C(F)(C(N)=O)C=C21 (stereo not given)    265 to 268 °C
2  O=C(O)c1cc(-n2c(-c3ccccc3)cc3c2CCc2ccccc2-3)ccc1S    260 to 262 °C
3                  c1ccc(-c2nc3ccccc3o2)nc1    105 to 107 °C
4      CCCn1nc2c(N)nc3ccccc3c2c1CCNC(=O)OCC    143 to 144 °C
5          CC(=O)Nc1ccc2cc(S(N)(=O)=O)sc2c1    214 to 217 °C

Query (compound): CCCCCCC(C(=O)OCC)c1ccc(NC(=O)C2c3ccccc3-c3ccccc32)cc1 (stereo not given) ; field requested: melting point
174 to 175 °C

Query (compound): COc1c(C)cc2c(c1C)C[C@@H]1c3cc(C(C)C)ccc3N[C@H]21 (relative stereo) ; field requested: melting point
106 °C

Query (compound): Nc1c(N=O)c(=O)[nH]c(=O)n1Cc1ccc(Cl)cc1 ; field requested: melting point
> 320 °C

Query (compound): CCOc1nn(Cc2ccc(OC)c(OCc3nc(-c4ccccc4)oc3C)c2)cc1CCC(=O)O ; field requested: melting point
136 to 137 °C

Query (compound): O=C(Oc1ccccc1Br)c1cc(I)c[nH]1 ; field requested: melting point
126 to 127 °C

====

Value Type: melting point

> print(dat)
                                   molecule     value.type  endpoint.result
1  CCOC(=O)Cc1ccc(-c2nc(COc3ccc(COc4nn(-c5ccccc5)cc4/C=C/c4coc(C(C)C)n4)cc3OC)c(C)o2)cc1  melting point    106 to 108 °C
2              CCCC1=C(Cl)C(=O)c2ccccc2C1=O  melting point      71 to 73 °C
3                 NC1=NN(c2ccc3ccccc3c2)CC1  melting point    190 to 191 °C

Query (molecule): Cc1cc2c(c(-c3cc(Cl)ccc3Cl)c1)OC(CN)C2 (stereo not given) ; field requested: melting point
155 to 156 °C

Query (molecule): CCC12CCC3=C(CCc4cc(OC)ccc43)C1CCC2=O (stereo not given) ; field requested: melting point
110 to 125 °C

====

Value Type: melting point

Some entries whose results are on file:
> print(dat)
                                   compound  endpoint.result
1         O=C1Nc2cc(Cl)ccc2N[C@H]1Cc1ccccc1           185 °C
2  Cn1ncc(S(=O)Cc2ccccc2)c(Cl)c1=O (stereo unspecified)    129 to 131 °C
3  COc1cc2c(cn1)OCC21C(=O)N(CC2CCOCC2)c2ccccc21 (stereo unspecified)      84 to 85 °C
4  CCCCCCC(C(=O)N1CC(O)CC1C(=O)O)n1cnc2cc(-c3ccccc3-c3nn[nH]n3)ccc21 (stereo unspecified)    155 to 160 °C
5          COC(=O)CCc1ccccc1Cc1ccccc1C(=O)O    123 to 126 °C
6  O=c1c2ccccc2nnn1CCN1CC=C(c2c[nH]c3ccccc23)CC1           230 °C

Query (compound): C=Cc1nc(NC)sc1-c1ccncc1 ; field requested: melting point
110 to 111 °C

Query (compound): COc1cccc(N2CCN(C[C@H](CC3CCCCC3)NC(=O)C3CCCCC3)CC2)n1 ; field requested: melting point
107 to 109 °C

Query (compound): COC(=O)C1=NNC(C)=C(C(=O)OC)C1c1ccccc1[N+](=O)[O-] (stereo unspecified) ; field requested: melting point
203 to 205 °C

Query (compound): COc1ccc(-c2nnc(NC3CCN(Cc4ccccc4)CC3)c3cc(OC)cc(OC)c23)cc1 ; field requested: melting point
168 °C

Query (compound): Cc1cc(CN(Cc2cc(C(F)(F)F)cc(C(F)(F)F)c2)c2nnn(C)n2)c(N(CC2CC2)CC2CC2)nc1C ; field requested: melting point
103 °C

Query (compound): Cc1cccc(Nc2nc3c(s2)CCc2[nH]ncc2-3)n1 ; field requested: melting point
280 °C

Query (compound): CCc1nnc2n1N=C1c3cc(OC)c(OC)cc3CC1S2 (stereo unspecified) ; field requested: melting point
212 °C

====

Value Type: melting point

Some entries whose results are on file:
> print(dat)
                                    molecule  endpoint.result
 1  O=c1[nH]nc2n1-c1ccc(Cl)cc1C(c1ccccc1F)=CC2    223 to 225 °C
 2  CCCCC(CC)c1nc2cc(Cl)c(C#N)c(C)n2n1 (stereo not drawn)      95 to 96 °C
 3  COc1ccc(C(=O)N2c3ccccc3C(Nc3ccc(Br)cc3)CC2C)cc1OC (stereo not drawn)    173 to 175 °C
 4  CCCCn1c(-c2ccccc2)c(Cc2c(O)ccc3ccccc23)c(=O)[nH]c1=S    201 to 203 °C
 5  CCCNCC1CCN(c2nc3c(cc2F)c(=O)c(C(=O)O)cn3C2CC2)C1 (stereo not drawn)    230 to 233 °C
 6      O=C(O)c1nn(-c2ccc(Cl)cc2Cl)c2c1CCCC2    239 to 240 °C
 7             Clc1cc(Oc2ccc3[nH]ccc3c2)ncn1    137 to 138 °C
 8  C#Cc1ccnc(-c2cc([N+](=O)[O-])c(-c3cc(C#C)ccn3)cc2N)c1    154 to 160 °C
 9         CCON=C(c1ccccc1COc1ccccc1)n1cncn1  78.5 to 80.5 °C
10  O=C(CN1CCN(CCCC(c2ccc(F)cc2)c2ccc(F)cc2)C(C(=O)O)C1)Nc1c(Cl)cccc1Cl (stereo not drawn)           204 °C

Query (molecule): COc1ccc2ccnc(N)c2c1 ; field requested: melting point
128 to 130 °C

Query (molecule): CCN(CC(C)(C)C)c1nc2c(cc1CN(Cc1cc(C(F)(F)F)cc(C(F)(F)F)c1)c1nnn(C)n1)c(C)nn2C ; field requested: melting point
72 to 73 °C

Query (molecule): CNC(=O)C1(CCCCCCCCO)CC2=C(C1)C(=O)C(OC)=C(OC)C2=O ; field requested: melting point
120 to 123 °C

Query (molecule): Nc1nc(O)c2cc(C=Cc3ccc(C(=O)O)cc3)cnc2n1 ; field requested: melting point
> 250 °C

Query (molecule): Cn1c(-c2ccc(-c3cccs3)cc2)cnc1[C@H](Cc1ccccn1)N(C=O)c1cc2cc(Cl)ccc2o1 ; field requested: melting point
110 to 114 °C

Query (molecule): O=c1c(-c2cccc(Cl)c2)coc2cc(O)c(O)cc12 ; field requested: melting point
308 °C

Query (molecule): OCc1cccn1CCN1CCC(=C2c3ccccc3CCn3ccnc32)CC1 ; field requested: melting point
147 °C

Query (molecule): O=C(O)CCC(Cc1ccccc1Cl)(C(=O)C=Cc1cccc(Cl)c1)c1ccccc1 (stereo not drawn) ; field requested: melting point
170 to 172 °C

Query (molecule): Cc1nnc(-c2ccc3ccn(-c4ccc(S(C)(=O)=O)cc4)c3c2)o1 ; field requested: melting point
228 to 229 °C

====

Each entry below carries its reported melting point.

> print(dat)
                                   compound  endpoint.result
1            O=[N+]([O-])c1ccc2c(c1)C=CCCO2    94 to 95.5 °C
2  O=C1CCC(c2ccc(NC(=O)C3CC3(Cl)Cl)cc2)=NN1 (stereo not drawn)    267 to 268 °C
3  CS(=O)(=O)c1ccc(-c2cnn(-c3ccc(F)cc3)c(=O)c2-c2cccc(F)c2)cc1    199 to 201 °C
4  CC1=C(C(=O)O)C(c2ccccc2Cl)C(c2cccs2)=NN1 (stereo not drawn)           188 °C
5  O=S(=O)(c1cccs1)N(CC1CC1)c1cccc2cc(-c3ncc(CO)s3)[nH]c12           174 °C
6  CCCc1c(OCCCOc2ccc(-c3cc[nH]n3)c(OC)c2CCC)ccc2c1OC(C(=O)O)CC2 (stereo not drawn)    156 to 158 °C

Query (compound): Cc1ccc(Cn2c3c(c4cc(OCc5ccccc5)ccc42)C(=O)C(=O)OC3)cc1 ; field requested: melting point
206 to 207 °C

Query (compound): CCSc1ccc(-c2cncnc2)c2c1C(=O)CC(C)C2 (stereo not drawn) ; field requested: melting point
168 to 171 °C

Query (compound): Cc1nc[nH]c1CSCCN=C(NC#N)NCCCCCCCN ; field requested: melting point
84 to 87 °C

Query (compound): FC(F)(F)c1ccc2nc(C3CCN(c4ncccc4Cl)CC3)[nH]c2c1 ; field requested: melting point
74 °C

Query (compound): COc1ccc(F)cc1C(C)(C)CC(O)(Cc1nc2cc(-c3ccccc3)ccc2o1)C(F)(F)F (stereo not drawn) ; field requested: melting point
103 to 104 °C

Query (compound): CC(C)(C)c1cc(C=C2SC(NCO)=NC2=O)cc(C(C)(C)C)c1O ; field requested: melting point
177 to 179 °C

Query (compound): C=CCn1c(=O)n(CCC)c(=O)c2[nH]c(C34CC5CC(CC3C5)C4)nc21 ; field requested: melting point
196 to 197 °C

Query (compound): Cc1nc(N)c([N+](=O)[O-])cc1Cl ; field requested: melting point
214 to 215 °C

Query (compound): CC(C)Oc1ccc(C[C@H](NC(=O)[C@@H]2CCCCN2S(=O)(=O)c2cccc(C(F)(F)F)c2)C(=O)NC2CCOCC2)cc1 ; field requested: melting point
78.6 °C

Query (compound): NC(=O)c1ncn(CCCc2ccc(OCc3coc(/C=C/c4ccccc4)n3)cc2)c1C(N)=O ; field requested: melting point
194 to 195 °C

Query (compound): CCOC(=O)/C(=N/OC)c1ccc(OCCOc2ccc3ccccc3c2)s1 ; field requested: melting point
132 to 134 °C

Query (compound): COc1cccc2c(CBr)coc12 ; field requested: melting point
91 to 93.5 °C

Query (compound): C=CCc1c[nH]c2c([N+](=O)[O-])cccc2c1=O ; field requested: melting point
242 °C

Query (compound): CCOC(=O)N1CC2(C1)N=C(N)c1c(F)cccc1N2 ; field requested: melting point
210 to 212 °C

Query (compound): O=C1NC2C3C=CC(C3)C12 (stereo not drawn) ; field requested: melting point
94 to 97 °C

Query (compound): Cc1nnc(CO)n1-c1ccc(Cl)cc1C(=O)c1ccccc1Cl ; field requested: melting point
194 to 195 °C

Query (compound): CC(C)n1nc(-c2sc(NC(=O)c3ccc4ccccc4c3)nc2-c2ccccc2)ccc1=O ; field requested: melting point
227 to 229 °C
